Source listed as patent US10927141B2.

Format: physicochemical
run.conditions: Dark control
observed.property: Final purity

For orientation, consider the following solved cases.
Given item COC[C@@]1(O)CC[C@@]2(C)[C@@H](CC[C@@H]3[C@@H]2CC[C@]2(C)[C@@H](C(=O)Cn4ccnc4)CC[C@@H]32)C1.O=C(O)CC(O)(CC(=O)O)C(=O)O [Compound 1 Citrate (Form B)] , the value recorded as its Final purity is 99.1

The measured Final purity associated with COCC1(O)CCC2(C)C(CCC3C2CCC2(C)C(C(=O)Cn4ccnc4)CCC32)C1.O=S(=O)(O)c1ccc2ccccc2c1 (stereo not drawn) [Napsylate (Form A)] reads 99.1

Now look at this one.
Just so you know, measured Final purity for COCC1(O)CCC2(C)C(CCC3C2CCC2(C)C(C(=O)Cn4ccnc4)CCC32)C1.O=C(O)C(O)C(O)C(=O)O (stereo not drawn) [L(+)-Tartrate (Form A)] came out at 99.2
